assay: PK study in non-human primates, single sc dose 5 nmol/kg, plasma ELISA; conditions: read-out: Cmax (nmol/L); monkey, single sc dose 5 nmol/kg
MEASURED_PROPERTY: Cmax (nmol/L)
One number for each entry, in nmol/L.

Query string: Find the recorded Cmax belonging to MLC004: fusion polypeptide SEQ ID NO: 251 conjugated with Moiety A at 26K of GLP-1 (conjugate, Moiety A conjugated at K26) HGEGTFTSDVSSYLEEQAAKEFIAWLVRGGGGQEPGAQPGQEPGAQPGQEPGAQPGQEPGAQPGQEPGAQPGQEPGAQPGAQPGAQPGAQPGAQPGAQPGAQPGAQPGAQPARQGDHCPLGPGRCCRLHTVRASLEDLGWADWVLSPREVQVTMCIGACPSQFRAANLHAQIKTSLHRLRPDTVPAPCCVPASYNPMVLIQRTDTGVSLQTYDDLLARDCHCI and report it.
Result string: 32.1
